Tested on: WI38
test.description: Crystal violet viability assay, WI38
Format: cell-based
condition.details: score 0-6 compared to positive control, 48 h
Measured Viability WI38 values are reported for all entries that follow.
measured.endpoint: Viability WI38

1. WNHHHSTPHPAHRRRRRR [pCAP-97R, pCAP-97 with poly arginine tail]: 4
2. myr-RRIRDPRILLLHFD [pCAP-325]: 6
3. myr-RRLIVRILKLPNPPER [pCAP-242]: 4
4. SFILFIRRGRLGRRRRRRRRR [pCAP-60R, pCAP-60 with poly arginine tail]: 2
5. myr-RRKILFIRLMHNKH [pCAP-227, myristoylated peptide, similarity to GAS2]: 3
6. myr-PRVLPSPHTIHPSQYP [pCAP-229, myristoylated peptide, similarity to HIPK2]: 3
7. IRGRIIR [pCAP-54]: 4
8. YPTQGHLR [pCAP-36]: 4
9. WNHHHSTPHPAH [pCAP-97]: 4

* * *

System: EP156
test.description: Crystal violet viability assay, EP156
Type: cell-based
condition.details: score 0-6 compared to positive control, 48 h
Rule: Viability EP156 below 4 gives 1 (yes), anything at or above gives 0 (no).

1) myr-PRVLPSPHTIHPSQYP [pCAP-229, myristoylated peptide, similarity to HIPK2]: 1 (yes)
2) WNHHHSTPHPAH [pCAP-97]: 1 (yes)
3) myr-RRLIVRILKLPNPPER [pCAP-242]: 0 (no)
4) myr-RRKHNKHRPEPDSDER [pCAP-221]: 0 (no)
5) YRRLLIGMMWRRRRRRRRR [pCAP-68]: 1 (yes)
6) SFILFIRRGRLGRRRRRRRRR [pCAP-60R, pCAP-60 with poly arginine tail]: 1 (yes)

* * *

System: mutp53 in BT549 cell extract
test.description: ELISA of mutp53 conformation, BT549;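 note: 0 means no effect and 6 means as or more effective than positive control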
Assay type: biochemical, human
condition.details: score 0-6 compared to positive control
measured.endpoint: Conform BT549

1. DEDAKFRIRILMRR [pCAP-202, peptide with similarity to APAF1]: 3
2. IRGRIIR [pCAP-54]: 2
3. myr-HSSHHHPTVQHRR [pCAP-257, myristoylated peptide, similarity to SIN3A]: 3
4. LRCLLLLIGRVG [pCAP-24]: 2
5. IRILMFLIGCGRRRRRRRRR [pCAP-23R, pCAP-23 with poly arginine tail]: 1
6. LHSKTLVL [pCAP-17]: 2
7. IRILMFLIGCGR [pCAP-23]: 2
8. SFILFIRRGRLGRRRRRRRRR [pCAP-60R, pCAP-60 with poly arginine tail]: 2
9. myr-RRLIVRILKLPNPPER [pCAP-242]: 4
10. LRCLLLLIGRVGRRRRRRRR [pCAP-24R, pCAP-24 with poly arginine tail]: 2
11. FPGHTIH [pCAP-100]: 1
12. SFILFIRRGRLG [pCAP-60]: 1
13. HANLHHT [pCAP-87]: 2

* * *

Tested on: ES2 ovarian cancer cells
test.description: Crystal violet viability assay, ES2
Format: cell-based, human
condition.details: score 0-6 compared to positive control, 48 h
measured.endpoint: Viability ES2

1) LRCLLLLIGRVGRRRRRRRR [pCAP-24R, pCAP-24 with poly arginine tail]: 3
2) myr-RRIRDPRILLLHFD [pCAP-325]: 4
3) myr-RRLIVRILKLPNPPER [pCAP-242]: 5
4) YPTQGHLR [pCAP-36]: 3
5) IRILMFLIGCGRRRRRRRRR [pCAP-23R, pCAP-23 with poly arginine tail]: 3
6) WNHHHSTPHPAH [pCAP-97]: 3
7) IRGRIIRRRRRRRRR [pCAP-54R, pCAP-54 with poly arginine tail]: 3
8) YRRLLIGMMWRRRRRRRRR [pCAP-68]: 5
9) WNHHHSTPHPAHRRRRRR [pCAP-97R, pCAP-97 with poly arginine tail]: 4
10) myr-RRKHNKHRPEPDSDER [pCAP-221]: 6
11) IRILMFLIGCGR [pCAP-23]: 3
12) LHSKTLVL [pCAP-17]: 3
13) myr-RRKILFIRLMHNKH [pCAP-227, myristoylated peptide, similarity to GAS2]: 5
14) EVTFRHSVV [pCAP-1, randomly selected peptide used as inert comparison]: 4
15) EHDFEVRGDVVNGRNHQPK [pCAP-4, randomly selected peptide used as inert comparison]: 2
16) SFILFIRRGRLGRRRRRRRRR [pCAP-60R, pCAP-60 with poly arginine tail]: 3
17) HHPWTHHQRWS [pCAP-20]: 3
18) SFILFIRRGRLG [pCAP-60]: 3

Origin of measurements: paper PMC4914250
